experimental system: T1, CD40hfc (R&Dsystems, USA) (UniProt P25942 21-193)
T1 construct: Bought reagent; also called immobilized CD40 receptor; target; not shown: Fc part ('hfc') of the bought fusion
T1 sequence (P25942 21-193 limits assumed): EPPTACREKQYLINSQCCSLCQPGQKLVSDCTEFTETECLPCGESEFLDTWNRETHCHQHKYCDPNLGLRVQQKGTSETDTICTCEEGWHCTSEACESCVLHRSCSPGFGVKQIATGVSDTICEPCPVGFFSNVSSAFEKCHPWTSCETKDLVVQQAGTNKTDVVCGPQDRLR
assay summary: SPR, physiological pH and 37 C

binder	fold improvement of affinity versus B44
Antibody clone B9 (antibody, human IgG1, lambda, V domains shown) VH: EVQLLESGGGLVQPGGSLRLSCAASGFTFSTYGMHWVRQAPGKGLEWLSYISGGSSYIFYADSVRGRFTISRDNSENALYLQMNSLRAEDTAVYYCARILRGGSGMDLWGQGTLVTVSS VL: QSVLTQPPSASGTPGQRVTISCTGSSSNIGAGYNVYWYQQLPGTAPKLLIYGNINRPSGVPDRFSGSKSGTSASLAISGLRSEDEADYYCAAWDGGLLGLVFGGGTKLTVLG	~100 fold
Antibody clone F6 (antibody, human IgG1, lambda, V domains shown) VH: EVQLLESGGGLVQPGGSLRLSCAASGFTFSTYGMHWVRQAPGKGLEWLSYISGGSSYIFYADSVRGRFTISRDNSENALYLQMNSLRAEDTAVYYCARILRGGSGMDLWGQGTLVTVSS VL: QSVLTQPPSASGTPGQRVTISCTGSSSNIGAGYDVYWYQQLPGTAPKLLIYRNINRPSGVPDRFSGSKSGTSASLAISGLRSEDEADYYCAAWDGSLLGLVFGGGTKLTVLG	~100 fold

Reference source: patent US20140348836A1
